Where do these numbers come from? They come from patent US20200261595A1.

# target-entity: insulin receptor of isolated rat adipocytes (rat, UniProt P15127 27-1383)
# Sequence (P15127 27-1383): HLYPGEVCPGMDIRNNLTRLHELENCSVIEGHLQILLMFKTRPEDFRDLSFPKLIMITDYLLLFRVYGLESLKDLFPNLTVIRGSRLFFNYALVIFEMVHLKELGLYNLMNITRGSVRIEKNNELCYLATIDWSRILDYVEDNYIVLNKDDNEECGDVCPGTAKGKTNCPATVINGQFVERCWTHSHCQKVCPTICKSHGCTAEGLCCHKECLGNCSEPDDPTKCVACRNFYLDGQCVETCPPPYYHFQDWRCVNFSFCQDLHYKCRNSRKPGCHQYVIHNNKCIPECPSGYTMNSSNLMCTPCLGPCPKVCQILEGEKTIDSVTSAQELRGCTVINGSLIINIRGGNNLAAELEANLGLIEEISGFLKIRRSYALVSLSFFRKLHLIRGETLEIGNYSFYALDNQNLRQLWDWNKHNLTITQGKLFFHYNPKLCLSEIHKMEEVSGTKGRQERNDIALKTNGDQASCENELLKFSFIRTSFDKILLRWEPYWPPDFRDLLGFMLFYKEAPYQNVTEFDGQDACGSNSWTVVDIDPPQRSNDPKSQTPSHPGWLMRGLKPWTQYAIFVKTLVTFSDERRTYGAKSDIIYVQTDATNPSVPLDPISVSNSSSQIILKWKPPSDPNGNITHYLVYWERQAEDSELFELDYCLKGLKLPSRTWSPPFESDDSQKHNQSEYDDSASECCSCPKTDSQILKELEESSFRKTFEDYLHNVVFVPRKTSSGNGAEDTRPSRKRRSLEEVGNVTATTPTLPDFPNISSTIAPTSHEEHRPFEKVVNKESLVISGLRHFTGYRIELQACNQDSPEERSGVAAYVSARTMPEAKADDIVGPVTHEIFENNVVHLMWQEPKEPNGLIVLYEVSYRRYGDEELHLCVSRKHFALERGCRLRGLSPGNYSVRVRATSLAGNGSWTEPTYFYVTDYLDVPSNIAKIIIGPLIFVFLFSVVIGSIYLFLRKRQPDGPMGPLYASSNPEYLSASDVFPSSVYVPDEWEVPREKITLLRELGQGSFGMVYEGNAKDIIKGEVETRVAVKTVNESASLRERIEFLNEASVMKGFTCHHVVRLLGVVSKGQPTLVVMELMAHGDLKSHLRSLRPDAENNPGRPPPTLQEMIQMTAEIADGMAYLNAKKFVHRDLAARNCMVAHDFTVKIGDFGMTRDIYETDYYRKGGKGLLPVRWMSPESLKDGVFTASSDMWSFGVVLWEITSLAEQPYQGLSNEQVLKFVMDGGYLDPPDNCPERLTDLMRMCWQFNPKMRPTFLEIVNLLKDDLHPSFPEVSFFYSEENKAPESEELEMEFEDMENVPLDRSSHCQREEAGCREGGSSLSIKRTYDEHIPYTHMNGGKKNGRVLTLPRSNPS
# assay-details: cell-based or functional assay
experimental-endpoint: Lipogenesis in rat adipocytes [Potency (%)] Mean Value

(A14E, A21G, A22(GQAP)24, A118G, A119Q, A120A, A121K^, A122P, B29R, desB30 human insulin)/(227A, 234A, 235K, 297E, 315Q, 384Q, des447 hIgG4-Fc(228-447)) … (other, Cys229 (EU numbering) sulphur bound to an acetyl arm of the linker; A121K N(eps) acylated by the trivalent linker 3,5-bis[(2-acetyl)amino]benzoyl, also called Ex 5.29) chain 1: GIVEQCCTSICSLEQLENYCGGQAPGQAPGQAPGQAPGQAPGQAPGQAPGQAPGQAPGQAPGQAPGQAPGQAPGQAPGQAPGQAPGQAPGQAPGQAPGQAPGQAPGQAPGQAPGQAPGQAKP chain 2: FVNQHLCGSHLVEALYLVCGERGFFYTPR chain 3: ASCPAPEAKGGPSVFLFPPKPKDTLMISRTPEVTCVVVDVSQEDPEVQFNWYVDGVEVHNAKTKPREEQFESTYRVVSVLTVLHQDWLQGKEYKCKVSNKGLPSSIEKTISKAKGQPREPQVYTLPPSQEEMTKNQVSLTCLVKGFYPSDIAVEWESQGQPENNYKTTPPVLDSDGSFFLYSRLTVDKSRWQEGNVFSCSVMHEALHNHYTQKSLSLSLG :: 2.64 % of human insulin

# context switch: different binder, same Lipogenesis in rat adipocytes [Potency (%)] Mean Value
For the binder A14E, A21G, A22(GQEP)6, A46K^, A47P, B25H, B29R, desB30 human insulin/(227A, 234A, 235K hIgG4-Fc(228-447)) … (other, Cys229 (EU numbering) sulphur bound to an acetyl arm of the linker; A46K N(eps) acylated by the trivalent linker 4-[bis[2-[(2-acetyl)amino]ethyl]amino]-4-oxo-butanoyl, also called Ex 5.7) chain 1: GIVEQCCTSICSLEQLENYCGGQEPGQEPGQEPGQEPGQEPGQEPKP chain 2: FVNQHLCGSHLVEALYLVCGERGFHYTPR chain 3: ASCPAPEAKGGPSVFLFPPKPKDTLMISRTPEVTCVVVDVSQEDPEVQFNWYVDGVEVHNAKTKPREEQFNSTYRVVSVLTVLHQDWLNGKEYKCKVSNKGLPSSIEKTISKAKGQPREPQVYTLPPSQEEMTKNQVSLTCLVKGFYPSDIAVEWESNGQPENNYKTTPPVLDSDGSFFLYSRLTVDKSRWQEGNVFSCSVMHEALHNHYTQKSLSLSLGK , report Lipogenesis in rat adipocytes [Potency (%)] Mean Value.
1.88 % of human insulin
